value_type: melting point

// query Answer with the recorded melting point for the compound listed here: C[C@H]1N(C(=O)c2ccc(OCC(F)(F)C(F)F)cc2)CC(=O)O[C@@]1(Cn1cncn1)c1ccc(F)cc1F (relative stereo)
// result 78 to 83 °C

// query Give the value of melting point reported for the following: COC(=O)C=Cc1cnc(SC)nc1NCc1ccc(OC)c(Cl)c1
// result 141 to 142 °C

// query Identify measured melting point associated with CCCC1(CCC)Oc2c(ccc(O)c2C(C)=O)-c2ccccc21
// result 83 to 83.5 °C

// query State, in one line, measured melting point of CCCOc1ccccc1-c1nc2cc3ncn(Cc4ccc(Cl)cc4)c3cc2c(=O)[nH]1
// result 136 to 137 °C

// query Using known records, supply melting point for CCCCCc1ccc(-c2ccc(-c3cc(F)c(C(F)(F)Oc4cc(F)c(C(F)(F)F)c(F)c4)c(F)c3)c(F)c2)cc1
// result 96 °C

// query Using the record for CCCc1c(OCCOCCOCCOc2c(C(C)=O)ccc(OCC(=O)O)c2CCC)ccc(C(C)=O)c1O , state its measured melting point.
// result 74 to 77 °C

// query Quickly give me recorded melting point for O=C(O)C1Cc2ccc3ccccc3c2C1 (single isomer, unassigned; (-))
// result 139 to 141 °C

// query Fill in melting point for record COc1ccc(C(=O)O)cc1C#CCN(C)C
// result 167 to 170 °C

// query Supply measured melting point of Cc1cc2oc(S(N)(=O)=O)cc2cn1 in your reply.
// result 233 to 234 °C

// query State its melting point: CC(C)C(NC(=O)[C@@H]1CCCN1C(=O)[C@@H](NC(=O)c1ccc(C(=O)N2CCOCC2)nc1)C(C)C)C(=O)C(F)(F)C(F)(F)F (stereo partly specified)
// result 111 to 112 °C

// query Given CNCC[C@H]1CC[C@H](C(=O)O)CC1 , respond with its melting point.
// result 212 to 214 °C

// query Quote melting point reported for N#Cc1cc(C(F)(F)F)[nH]c1-c1ccccc1Cl please.
// result 151 to 152 °C

// query Complete the entry with melting point for O=C(CCSCCOCCSCCC(=O)Nc1ccc(Nc2ccccc2)cc1)Nc1ccc(Nc2ccccc2)cc1
// result 154 to 156 °C

// query Supply reported melting point belonging to this compound: C[C@@H]1OC(=O)[C@H]2C[C@H]3CCCC[C@@H]3[C@@H](O)[C@@H]12
// result 195 to 196 °C

// query Using known records, supply melting point for COC(=O)/C=C(/OC)c1cccc2ccc(Br)cc12
// result 96 to 97 °C

// query Identify melting point associated with the compound O=C1C(Cl)=C(Cl)C(=O)c2cc(Cl)ccc21
// result 148 °C

* * *

For each of the compounds below, state its melting point.

// query Give the value of melting point reported for the following: CCOCc1nc2c(Cl)nc(C)c(C)c2n1NC1CCOCC1
// result 137 to 139 °C

// query Item Nc1nc(-c2ccccn2)nc2ccccc12 : provide melting point
// result 173 to 174 °C

// query Specify measured melting point for O=C1COc2ccc(C3=Cc4ccccc4SC3c3ccccc3)cc2N1 (stereo unspecified) .
// result 226 to 227 °C

// query Fill in melting point for record C[C@]12C[C@H](c3ccc(OCCCCCS(=O)(=O)CCCC(F)(F)C(F)(F)F)cc3)[C@@H]3c4ccc(OC5CCCC5)cc4CC[C@H]3[C@@H]1CC[C@@H]2O
// result 166 °C

// query State, in one line, measured melting point of COC(=O)NC(=O)NS(=O)(=O)c1ccc(Cl)cc1
// result 174 to 175 °C

// query Provide measured melting point value, entry: CCc1cccc2c3c([nH]c12)C(CC)(CC(=O)OC)OCC3O (stereo unspecified)
// result 117 to 118 °C

// query Tell me measured melting point for COC(=O)c1ccc2c(c1)C(SCCO)c1ccccc1CO2 (stereo unspecified) please.
// result 128 to 130 °C

// query Provide measured melting point value, entry: CCCN(CCC)C1CCc2ccc(NC(=O)C=NO)cc2C1 (stereo unspecified)
// result 82 to 85 °C

// query Look up and state reported melting point for CC(C)c1ccc(NC(=O)C2CCCc3ccccc32)cn1 (stereo unspecified)
// result 156 °C

// query Give recorded melting point. CCCCCc1c(C(C)C)nc(C(C)C)c(CO)c1-c1ccc(OC)cc1
// result 47 to 49 °C

// query Return melting point (reported value) for this compound: O=C(/C=C/c1cccc(S(=O)(=O)N2CCN(c3ncccn3)CC2)c1)NO
// result 200 °C

// query Kindly indicate its recorded melting point. Item: CC(=O)OC1CCC2C3CCC4=CC(=O)CCC4(C)C3(Br)C(F)CC12C (stereo unspecified)
// result 172 to 174 °C

// query Using known records, supply melting point for N#CC(C#N)=CCOCCc1ccccc1
// result 135 to 136 °C

// query State, in one line, measured melting point of COC(=O)c1cc(Cl)c(Cl)c(C2=NOCC2)c1C
// result 74 to 76 °C

// query Item CC(C)CCCC(C)C1CCC2=C3C(=O)CC4C(C)(C)C(OC(=O)c5ccccc5)CCC4(C)C3CCC21C (stereo unspecified) : provide melting point
// result 189 to 190 °C

// query Provide only the value of recorded melting point for O=C(O)CNC(=O)CBr
// result 90 to 91 °C

* * *

value_type: melting point

// query Please report the measured melting point for Cc1cc2ccncc2c(=N)c2ccccc12
// result 165 to 168 °C

// query Give recorded melting point. COc1ccc(-c2cncc(OC3SCC(OC(C)=O)C(OC(C)=O)C3OC(C)=O)c2)c(C)c1 (centres undefined)
// result 283 °C

// query Provide one value: measured melting point of Cc1nc(N2CCN(Cc3ccc(C(F)(F)F)cc3)C2=O)sc1Br
// result 107 to 108 °C

// query Specify reported melting point for the compound shown: CCCCCCCCCCCCCCCCCCOc1cc(OCCC[PH](=O)OCC)cc(N(CC(=O)O)CC(=O)O)c1 (centres undefined)
// result 105 to 108 °C

* * *

value_type: melting point

// query Tell me measured melting point for CCCCc1c[nH]c(S(C)=O)c1[N+](=O)[O-] (stereo not given) please.
// result 133 to 134 °C

// query For O=c1[nH]sc2c1c(=O)c1cc(F)c(N3CCNCC3)cc1n2C1CC1 , write its melting point.
// result > 275 °C

// query Output measured melting point for this item: O=[N+]([O-])c1ccc(Oc2ccc3cc(Oc4ccc([N+](=O)[O-])c(O)c4)ccc3c2)cc1O
// result 244 to 246 °C

// query Give the reported value of melting point for this record: COc1cccc(C(CN2CCN(c3cccc(C(F)(F)F)c3)CC2)C2(O)CCCC2)c1 (stereo not given)
// result 158 to 160 °C

// query Provide melting point value for the following molecule: CC1=C(C(N)=O)C(c2ccccc2)(N2CCN(c3ccc(F)cc3C)CC2)NO1 (stereo not given)
// result 139 to 141 °C

* * *

Kindly state melting point for each of the entries shown.

// query Output measured melting point for this item: Cc1ccc(CSc2nc3cc4c(cc3[nH]2)C(C)(C)C(=O)C4(C)C)nc1
// result 220 to 222 °C

// query Return the recorded melting point value; entry: COc1ccc2c(c1)CN(c1ccc3c(ccn3C)c1)C2
// result 193 to 196 °C

// query For the compound CC(C(=O)O)c1ccc2c(c1)Cc1cc([N+](=O)[O-])ccc1-2 (centres undefined) , report melting point.
// result 206 to 209 °C

// query Note down melting point recorded for COC(=O)c1cc(SCc2ccccc2)c(Cc2ccccc2)c(S(N)(=O)=O)c1
// result 139 to 140 °C

// query Identify measured melting point associated with CNC(=O)CC1CN=C(c2cc3cc(Oc4ccc(S(C)(=O)=O)nc4)cc(OC(C)COC)c3[nH]2)S1 (centres undefined)
// result 107 to 109 °C

// query Please look at this compound and report its melting point: CCCCc1nc2c(N)nc3cccnc3c2n1CCNC(=O)OC(C)(C)C
// result 118 to 120 °C

// query Please supply the value of reported melting point for the item CCCN(c1ccccc1)S(=O)(=O)c1ccc(C(CC2CCCC2)C(=O)Nc2nc3ccc(OC)nc3s2)cc1 (centres undefined)
// result 83 to 85 °C

// query Specify measured melting point for Cc1ccc2sc(S(=O)(=O)c3ccc(=O)[nH]n3)cc2c1 .
// result 240 to 242 °C

// query Give recorded melting point. CC1(C)CCC(C)(C)c2nc3c(ccc4c(-c5ccc(C(=O)O)cc5)cn(Cc5cccnc5)c43)nc21
// result 286 to 288 °C

// query Please give measured melting point of the following entry: CCCCNC(=N)NC(=O)NCCCC
// result 82 to 94 °C

// query Kindly indicate its recorded melting point. Item: COC(=O)c1cccc(C(=O)CC(=O)c2ccccc2)c1
// result 106 to 108 °C

// query In one line, give reported melting point of the entry O=C(C1=COCCOCCOCCOCCOCCO1)c1cccnc1 .
// result 98 to 100 °C

// query Return reported melting point. Input compound: CN1CCN(c2cccc(Nc3nc4c(-c5cnn(-c6ccc(F)cc6)c5)cccn4n3)c2)CC1
// result 216 to 218 °C

// query Report melting point for N#CN=C(NCCSCc1ccccn1)NCCSCc1ccccn1
// result 78 to 80 °C

// query Name the recorded melting point of the compound listed here: C[C@H](NC(=O)C1(C)Oc2ccc([N+](=O)[O-])cc2NC1=O)C(=O)N[C@H](CCC(=O)O)C(N)=O (some centres undefined)
// result 142 to 146 °C

// query Return melting point (reported value) for this compound: COc1ccc2[nH]c(C)c(SC)c2c1
// result 55 to 56.5 °C

// query Give melting point for Nc1c(OCCCBr)cccc1[N+](=O)[O-]
// result 88 to 89 °C

// query Using known records, supply melting point for CC(=O)SC(CC(=O)c1ccc(Sc2ccc(C)cc2)cc1)C(=O)O (centres undefined)
// result 127 to 129 °C

// query Supply measured melting point of CCOP(=O)(CC(=O)NNc1nc2ccc(C(F)(F)F)cc2n(O)c1=O)OCC in your reply.
// result 193 to 196 °C

// query Provide melting point value for the following compound: CC(NC(=O)NC1N=C(c2ccccc2)c2ccccc2N(C)C1=O)c1ccccc1 (centres undefined)
// result 146 to 150 °C

// query Given CNC(=O)c1cc(=O)c2ccccc2o1 , respond with its melting point.
// result 224 to 225 °C

// query Report melting point for C[C@@H]1Cc2cc(N3C[C@H](C(N)=O)OC3=O)ccc2N1C=O
// result 228 to 230 °C

// query Using the record for CC(C)CC(=O)OC1COC(OC(=O)CC(C)C)CO1 (centres undefined) , state its measured melting point.
// result 104 to 105 °C

// query Output melting point of CCOC(=O)C1=C(COCCn2c(C)nnc2-c2ccccc2)NC(C)=C(C(=O)Nc2ccccn2)C1c1ccccc1Cl (centres undefined)
// result 167 to 169 °C

// query Note melting point for the compound shown: COc1ccc(C=Cc2cc(OC)c3c(c2)OCO3)cc1O
// result 145 to 150 °C

// query Output measured melting point for this item: CCOC(=O)CC(c1ccccc1)C(C#N)c1ccccc1 (centres undefined)
// result 60.5 to 63 °C

// query Give the value of melting point reported for the following: CCCc1c(OCCOc2cccc3c2CCCC3)ccc2c1OC(CCC(=O)O)(CCC(=O)O)CC2=O
// result 160 to 162 °C

// query Give the measured melting point for CONCc1nc2c(N)nc3ccccc3c2n1CC1(O)CCC1
// result 178 to 181 °C

// query Determine its reported melting point: CC(c1ccc(Cl)cc1)N1CCNC1=NC#N (centres undefined)
// result 133 °C
